Source listed as paper PMC6272564.

Test system: HCT-116
METHOD: MTT cytotoxicity assay, HCT-116 colon cancer cells
Type: cell-based
TEST_CONTEXT: Homo sapiens, IC50 with 95% confidence interval, triplicate, 72 h incubation
METRIC_NAME: IC50

In [3]: df
Out[3]:
                    structure_smiles_string  metric_name  recorded_value
0         O=c1oc2cc(O)c(/N=C/c3ccccc3)cc2s1         IC50         > 10 µM
1  O=c1oc2cc(O)c(/N=C/c3cccc([N+](=O)[O-])c3)cc2s1         IC50         > 10 µM
2  O=c1oc2cc(O)c(/N=C/c3ccc(-c4ccccn4)cc3)cc2s1         IC50         > 10 µM
